In this section we review reported self-cleavage kobs at 10000 uM GlcN6P values for a set of variants.
B1: glmS ribozyme (parent)
chain: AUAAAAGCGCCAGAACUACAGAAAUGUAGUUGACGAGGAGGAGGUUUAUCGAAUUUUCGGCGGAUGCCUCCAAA

Variants of: B1
assay info: self-cleavage kobs at 10000 uM GlcN6P; higher = faster cleavage; RNA array
condition context: with glucosamine-6-phosphate
Fewer inactive variants are shown than the library holds.
experimental readout: self-cleavage kobs at 10000 uM GlcN6P

INSERT INTO assay_data (mutant, experimental_readout, reading) VALUES
  ('G51U U55C', 'self-cleavage kobs at 10000 uM GlcN6P', '< 1e-05 s⁻¹'),
  ('A42G A64G C71G', 'self-cleavage kobs at 10000 uM GlcN6P', '0.000757 s⁻¹'),
  ('A15C A53C', 'self-cleavage kobs at 10000 uM GlcN6P', '0.00102 s⁻¹'),
  ('G41U G51A', 'self-cleavage kobs at 10000 uM GlcN6P', '< 1e-05 s⁻¹'),
  ('U30G A36G', 'self-cleavage kobs at 10000 uM GlcN6P', '< 1e-05 s⁻¹'),
  ('A14U U69C', 'self-cleavage kobs at 10000 uM GlcN6P', '0.00132 s⁻¹'),
  ('C8A A14G C58U', 'self-cleavage kobs at 10000 uM GlcN6P', '< 1e-05 s⁻¹'),
  ('A15C G51A', 'self-cleavage kobs at 10000 uM GlcN6P', '< 1e-05 s⁻¹'),
  ('C8U G40U C61U C67U', 'self-cleavage kobs at 10000 uM GlcN6P', '< 1e-05 s⁻¹'),
  ('U47G A48U A52C', 'self-cleavage kobs at 10000 uM GlcN6P', '< 1e-05 s⁻¹'),
  ('A14G C50G C70U', 'self-cleavage kobs at 10000 uM GlcN6P', '9.53e-05 s⁻¹');
